Just for reference, PubChem BioAssay (EPA / NIEHS) is where these values come from.

Test: Tanguay_ZF_120hpf_PE_legacy: (Legacy) Oregon State University Tanguay Lab 120 Hour Post-fertilization zebrafish Assay for Pericardial Edema (AID 2283640)
Records with an inconclusive call do not appear. Active and inactive are the calls of the source. How the source made its calls: active means hit-call score of the fitted dose curve at least 0.9, where 1 is the maximum; inconclusive means response in the unintended direction; inactive means score below 0.9.
Answer with one of the outcomes active, inactive

// param item: `O=[N+]([O-])c1ccc(O)cc1` ; yields the recorded call
inactive

Please indicate how the test categorized `CCCOC(=O)c1ccc(O)cc1` .
active

What call does the record list for `C#C[C@]1(O)CC[C@H]2[C@@H]3CCC4=CC(=O)CC[C@@H]4[C@H]3CC[C@@]21C` ?
inactive

Could you please tell me the result logged for `CCCCCCCCC(=O)O` in this assay?
inactive

Which result was noted for this compound in the test: OC1CCC(C2CCCCC2)CC1 (stereo not drawn)
inactive

Please let me know the test result on file for `c1ccc2c(c1)Cc1ccccc1-2` .
inactive

Recorded test call requested for `CC(=O)CC(C)(C)O`
inactive

What was the test verdict on CCC(C)(C)C1CCC(O)CC1 (stereo not drawn) ?
inactive

How did this test come out for `COc1ccc([N+](=O)[O-])cc1N` ?
inactive

Could you kindly confirm the outcome this assay logged for `CCCCCCCCOC(=O)CCCCCCCCC(=O)OCCCCCCCC` ?
inactive

Can you look up the reported call for `Cc1oc(-c2ccccc2)nc1CCOc1ccc(C[C@H](Nc2ccccc2C(=O)c2ccccc2)C(=O)O)cc1` for me?
inactive

Outcome logged for `CC(C)(C)c1cc(C(C)(C)C)c(O)c(C(C)(C)C)c1` in this assay:
inactive

Which outcome was assigned to COCC(C)OCC(C)O (stereo not drawn) in this test?
inactive
